- TGT: SMARCA2 (Homo sapiens, UniProt P51531)
- Sequence (P51531 whole entry): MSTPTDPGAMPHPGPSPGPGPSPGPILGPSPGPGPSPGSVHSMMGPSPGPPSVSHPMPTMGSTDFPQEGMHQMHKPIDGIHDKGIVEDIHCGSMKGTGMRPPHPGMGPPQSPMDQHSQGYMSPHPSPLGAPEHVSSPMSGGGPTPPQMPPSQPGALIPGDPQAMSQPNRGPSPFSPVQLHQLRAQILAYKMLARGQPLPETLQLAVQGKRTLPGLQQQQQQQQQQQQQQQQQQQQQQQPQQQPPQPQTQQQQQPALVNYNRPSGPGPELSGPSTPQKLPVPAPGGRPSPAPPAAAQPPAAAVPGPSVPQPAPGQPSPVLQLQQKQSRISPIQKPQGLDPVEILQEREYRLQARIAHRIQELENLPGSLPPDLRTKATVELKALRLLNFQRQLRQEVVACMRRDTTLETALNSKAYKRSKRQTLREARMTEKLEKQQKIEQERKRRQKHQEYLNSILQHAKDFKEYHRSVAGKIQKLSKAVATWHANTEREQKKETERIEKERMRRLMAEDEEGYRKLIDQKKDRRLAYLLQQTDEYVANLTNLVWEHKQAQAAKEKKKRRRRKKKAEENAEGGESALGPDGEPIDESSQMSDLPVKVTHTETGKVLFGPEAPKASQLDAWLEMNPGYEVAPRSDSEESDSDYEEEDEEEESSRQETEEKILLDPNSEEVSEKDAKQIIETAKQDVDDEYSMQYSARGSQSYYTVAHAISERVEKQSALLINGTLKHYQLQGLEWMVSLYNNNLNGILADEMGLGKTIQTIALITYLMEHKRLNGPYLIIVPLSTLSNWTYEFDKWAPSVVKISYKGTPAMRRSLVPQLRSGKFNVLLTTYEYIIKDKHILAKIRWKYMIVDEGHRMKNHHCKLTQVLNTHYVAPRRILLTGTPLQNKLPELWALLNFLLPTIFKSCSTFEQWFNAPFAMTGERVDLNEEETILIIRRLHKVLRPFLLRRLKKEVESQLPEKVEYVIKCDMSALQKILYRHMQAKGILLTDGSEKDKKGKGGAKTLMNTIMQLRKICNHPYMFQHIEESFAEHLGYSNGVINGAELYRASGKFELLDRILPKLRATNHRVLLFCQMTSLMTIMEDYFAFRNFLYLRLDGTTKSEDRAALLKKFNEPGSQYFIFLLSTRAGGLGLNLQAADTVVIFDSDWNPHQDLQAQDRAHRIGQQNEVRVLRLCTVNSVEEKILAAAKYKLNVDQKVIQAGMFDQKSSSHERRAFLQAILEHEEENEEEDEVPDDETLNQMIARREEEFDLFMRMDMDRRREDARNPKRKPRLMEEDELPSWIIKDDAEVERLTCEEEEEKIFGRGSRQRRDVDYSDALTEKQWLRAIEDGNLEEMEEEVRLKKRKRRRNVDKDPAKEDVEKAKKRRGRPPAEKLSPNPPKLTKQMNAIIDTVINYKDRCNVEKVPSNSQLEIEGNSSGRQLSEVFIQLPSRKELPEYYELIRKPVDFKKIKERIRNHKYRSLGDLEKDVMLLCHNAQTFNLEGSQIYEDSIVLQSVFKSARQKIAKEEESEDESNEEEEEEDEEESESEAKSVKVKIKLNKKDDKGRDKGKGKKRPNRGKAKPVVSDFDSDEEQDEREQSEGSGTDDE
- TEST_SUMMARY: HiBiT assay for protein degradation, Hela SMARCA2-HiBiT cells (A series)
- Assay type: cell-based
- Design: Hela cells were genetically modified via CRISPR/Cas9 to fuse HiBiT to the carboxy terminus of SMARCA2; host or cells: HeLa (CRISPR/Cas9 HiBiT knock-in)
- CONDITION_SUMMARY: HeLa, read-out: SMARC A2 Hela HiBit Dmax (%)
- Protocol: Hela cells were genetically modified via CRISPR/Cas9 to fuse HiBiT to the carboxy terminus of SMARCA2 (Promega CS302365) or SMARCA4 (Promega CS3023225). Cells were cultured in DMEM containing 10% FBS and 1% (Vol:Vol) penicillin-streptomycin. […] At the end of experiment, levels of SMARCA2 or SMARCA4 expression were assessed with Nano-Glo® HiBiT Lytic Detection Assay (Promega N3050). IC50 was obtained using the GraphPad Prism data analysis software.
This listing pairs compounds with measured Dmax.

Challenge: For Cc1ncsc1-c1ccc([C@H](C)NC(=O)[C@@H]2C[C@@H](O)CN2C(=O)[C@@H](NC(=O)[C@H]2CC[C@H](CN3CCC(c4ccc5c(c4)C4(CCCCC4)c4nc(=O)c6c(Br)cccc6n4-5)CC3)CC2)C(C)(C)C)cc1 , write its Dmax.
Response given: > 90%

New cases:
Challenge: For Cc1ncsc1-c1ccc([C@H](CCCCCN2CCC(c3ccc4c(c3)C3(CCCCC3)c3nc(=O)c5c(Br)cccc5n3-4)CC2)NC(=O)[C@@H]2C[C@@H](O)CN2C(=O)[C@@H](NC(=O)C2(F)CC2)C(C)(C)C)cc1 , write its Dmax.
Response given: > 90%

Challenge: For Cc1ncsc1-c1ccc([C@H](C)NC(=O)[C@@H]2C[C@@H](O)CN2C(=O)[C@@H](n2cc([C@H]3CC[C@H](CN4CCC(c5ccc6c(n5)-n5c(nc(=O)c7c(Br)cccc75)C65CCCCC5)CC4)CC3)nn2)C(C)(C)C)cc1 , write its Dmax.
Response given: > 90%

Challenge: For Cc1ncsc1-c1ccc([C@H](C)NC(=O)[C@@H]2C[C@@H](O)CN2C(=O)[C@@H](NC(=O)CN2CCC(c3ccc4c(c3)C3(CCCCC3)c3nc(=O)c5c(Cl)cccc5n3-4)CC2)C(C)(C)C)cc1 , write its Dmax.
Response given: > 90%

Challenge: For Cc1ncsc1-c1ccc([C@H](C)NC(=O)[C@@H]2C[C@@H](O)CN2C(=O)[C@@H](NC(=O)[C@H]2CC[C@H](CN3CCC(c4ccc5c(c4)-n4c(nc(=O)c6c(Br)cccc64)C54CCCCC4)CC3)CC2)C(C)(C)C)cc1 , write its Dmax.
Response given: 70 to 90%

Challenge: For Cc1ncsc1-c1ccc([C@H](C)NC(=O)[C@@H]2C[C@@H](O)CN2C(=O)[C@@H](NC(=O)CCN2CCC(c3ccc4c(c3)C3(CCCCC3)c3nc(=O)c5c(Cl)cccc5n3-4)CC2)C(C)(C)C)cc1 , write its Dmax.
Response given: 70 to 90%

Challenge: For Cc1ncsc1-c1ccc([C@H](C)NC(=O)[C@@H]2C[C@@H](O)CN2C(=O)[C@@H](n2cc([C@H]3CC[C@H](CN4CCC(c5ccc6c(c5)-n5c(nc(=O)c7c(Br)cccc75)C65CCCCC5)CC4)CC3)nn2)C(C)(C)C)cc1 , write its Dmax.
Response given: > 90%

Challenge: For Cc1ncsc1-c1ccc([C@H](C)NC(=O)[C@@H]2C[C@@H](O)CN2C(=O)[C@@H](NC(=O)[C@H]2CC[C@H](CN3CCC(c4ccc5c(c4)C4(CCCCC4)c4nc(=O)c6c(Cl)cccc6n4-5)CC3)CC2)C(C)(C)C)cc1 , write its Dmax.
Response given: 70 to 90%

Reference source for all entries: patent US20260092071A1
